Each record here notes measured LC retention time.
experiment: Waters ACQUITY UPLC BEH C18, 100 × 2.1 mm, 1.7 µm, 40 °C, 0.28 mL/min, estimated dead time 0.63 min; A: water + 6.5 mM ammonium hydroxide; B: methanol + 6.5 mM ammonium hydroxide; gradient (min/%B) 0/0.5 4/70 4.5/98 5.4/98; conditions: stereoisomer not certain
The reply should be a number in min, with the unit left off.

Fill in reported LC retention time for this entry: `COC(=O)c1ccc(O)c(OC)c1` 4.18

Fill in reported LC retention time for this entry: NC(=O)NC1NC(=O)NC1=O (configuration not stated) 0.799

Fill in reported LC retention time for this entry: NC(Cc1ccc([N+](=O)[O-])cc1)C(=O)O (configuration not stated) 2.58

Fill in reported LC retention time for this entry: CC(=O)NC(CCC(N)=O)C(=O)O (configuration not stated) 0.835

Fill in reported LC retention time for this entry: O=c1[nH]cnc2c1ncn2C1OC(CO)C(O)C1O (configuration not stated) 1.9

Fill in reported LC retention time for this entry: `CC(C)(N)C(=O)O` 0.806

# input for lookup
Fill in reported LC retention time for this entry: CCC(C)(O)C(=O)O (configuration not stated) 0.857
